Origin of values: patent US12018066

molecular target: SARS-CoV spike protein receptor binding domain (RBD1) (SARS-CoV, UniProt P59594 306-527); experiment: ELISA, crude human minibody
metric_name: binding result

H01 human minibody (scFv-human Fc) (Fc fusion) scFv-Fc: QPGLTQPPSVSLAPGQTARITCGGNNIGSKSVHWYQQKPGQAPVLVVYDDSDRPSGIPERFSGSNAGNTATLTISRVEAGDEADYYCQVWDSRSDQYVFGTRTKLTVLSGGSTITSYNVYYTKLSSSGAQVTLKESGPVLVKPTETLTLTCTVSGFSLSNARMGVSWIRQPPGKALEWLAHIFSNGEKSYSTSLKSRLTISKDTSKSQVVLTMTNMDPVDTATYYCARTLDYYDSSGYLVGGAFDIWGQGTMVTVSS : no binding
D11 human minibody (scFv-human Fc) (Fc fusion) scFv-Fc: SYELTQPPSVSVAPGQTARITCGGNNIGSKSVHWYQQKPGQAPVLVVYDDSDRPSGIPERFSGSNSGNTATLTISGTQAMDEADYYCQAWDSSTAYVFGSGTKLTVLSGGSTITSYNVYYTKLSSSGTQVQLEESGGGLVQPGGSLRLSCAASGFTFSNYAMSWVRQAPGKGLEWVSAISGSGGATFHADSVKGRFTISRDNSKNTLYLQMNSLRAEDTAVYYCARRVGYDSSGYYWSDAFDIWGQGTMVTVSS : no binding
